- Test Details: Caspase-3/7 induction in HepG2 cells by small molecules, qHTS assay (AID 1346978); also: nearly all actives have a fitted effect of over 15% in size
- Experimental Setup: HepG2 caspase-3/7 activation, Caspase-Glo luminescence, 17 h; series mostly up to 92.4 µM
Inconclusive results are not listed. The source made the active and inactive calls. Calls follow the shape of the dose curve; as a rule, active = well fitted activation curve with a large enough effect in the repeat runs; inconclusive = weak or mixed curves; inactive = flat fitted curve, though single readings scatter.

Compound	caspase activation
ONc1ccccc1	inactive
COC(=O)CCCCC(CCSS/C(CCO)=C(\C)N(C=O)Cc1cnc(C)nc1N)SC(C)=O (configuration not stated)	inactive
CCCC(=O)OC/C=C(\C)CCC=C(C)C	inactive
CNCCS(=O)(=O)O	inactive
C=C(C)C1CC=C(C)C(=O)C1 (configuration not stated)	inactive
CN(C)CCOC(=O)C(c1ccccc1)C1(O)CCCC1 (configuration not stated)	inactive
O=C(O)CONC(=O)c1ccccc1	inactive

====

- Test Details: qHTS RealTime-Glo MT Cell Viability Assay in HepG2 cells - 24 hour (AID 1224867); also: nearly all actives have a fitted effect of over 50% in size
- Experimental Setup: RealTime-Glo luminescence; series mostly up to 76.8 µM
Records with an inconclusive call do not appear. Activity calls are given as the source filed them. Calls come from the whole dose curve; as a rule, active = well fitted cell-killing curve with a large enough effect in the repeat runs; inconclusive = weak or mixed curves; inactive = flat fitted curve, though single readings scatter.

Smiles Repr	activity change, negative = cytotoxicity
CCCCCCCCCOC(=O)CCCCC(=O)OCCCCCCC	inactive
OC1(c2ccc(Cl)cc2)CCNCC1	inactive
CCOCCOCC	inactive
CC(=O)OCC(=O)Nc1cc(C#N)cc(NC(=O)COC(C)=O)c1Cl	inactive
NCCOCCN	inactive
CC1(C)O[C@H]2CC(=O)OC[C@]23[C@H]2CC[C@@]4(C)[C@H](c5ccoc5)OC(=O)[C@H]5O[C@]54[C@]2(C)C(=O)C[C@@H]13	inactive

====

- Test Details: qHTS assay to identify small molecule antagonists of the estrogen related receptor (ERR) signaling pathway from Tox21 library (AID 1224848); also: nearly all actives have a fitted effect of over 50% in size
- Experimental Setup: ERR reporter cell line, luciferase antagonist mode, 18 h; series mostly up to 92.4 µM
Inconclusive results are not listed. Activity calls are given as the source filed them. Calls come from the whole dose curve; as a rule, active = well fitted inhibition curve with a large enough effect in the repeat runs; inconclusive = weak or mixed curves; inactive = no such curve, though single readings can be large or run the other way.
Outcome codes: active, inactive

Compound	Cat
O=C(CCCCC(=O)Nc1c(I)cc(I)c(C(=O)O)c1I)Nc1c(I)cc(I)c(C(=O)O)c1I	active
O=Cc1ccccc1Cl	inactive
OC[C@@H](O)C(O)[C@@H](O)CO (stereo partly specified)	inactive
CC(C)C[C@@H]1[C@H](c2ccccc2)OC(=O)N1CCCN1CCCCCC1	inactive
CC1c2ccccc2CN1NC(=O)c1ccc(Cl)c(S(N)(=O)=O)c1 (stereo unspecified)	inactive
CCCCCCCCCCCCCBr	inactive

====

- Experimental Target: Peroxisome proliferator-activated receptor gamma (Homo sapiens)
- Test Details: qHTS assay to identify small molecule antagonists of the peroxisome proliferator-activated receptor gamma (PPARg) signaling pathway (AID 743191); also: nearly all actives have a fitted effect of over 30% in size
- Experimental Setup: HEK293H PPARg-UAS-bla, beta-lactamase ratio, antagonist, 17 h; series mostly up to 62.6 µM
Results filed as inconclusive are left out. Calls of active or inactive are those of the source. Calls come from the whole dose curve.

Smiles Repr	outcome
OC[C@H]1O[C@@H](O[C@@H]2[C@@H](CO)O[C@](O)(CO)[C@H]2O)[C@H](O)[C@@H](O)[C@H]1O	inactive
CCC(=O)CC	inactive
COc1ccc2c(c1)c1c3n2CCN(C)C3=NCC1	inactive
CO/N=C(/C(=O)N[C@@H]1C(=O)N2C(C(=O)[O-])=C(C[n+]3ccn4ncccc43)CS[C@H]12)c1nsc(N)n1	inactive
CC1=NN(c2ccc(S(=O)(=O)O)cc2)C(=O)C1	inactive

Values from PubChem BioAssay (Tox21)
